Test system: MCF7 breast
Assay: NCI-60 one-dose screen, 48 h
Details: 10 µM unless noted
This is part of a sample that, as a whole, favours compounds with a hit. Of some 83,000 tested, about 20% had one in any assay. Calls of active or inactive are those of the source. How the source made its calls: active means growth percent below 10; inactive means the rest.
Form entry, call: pick from T for active, F for inactive

stdin: Any idea what this test logged for Cc1ccnc2c(NC(C)CCCN)cc(O)c(O)c12 (stereo unspecified) ?
stdout: F

stdin: Try the compound CC1CCCCC[N+]12CCCC2 (stereo unspecified)
stdout: F

stdin: Try the compound `O=C(Cc1ccccc1[N+](=O)[O-])c1ccc2c(c1)OCO2`
stdout: F

stdin: Try the compound `CCc1ccc(C(=Nc2ccc(N(C)C(=O)CN3CCN(C)CC3)cc2)c2c(O)[nH]c3ccc(C(=O)OC)cc23)cc1`
stdout: T

stdin: Try the compound `Oc1ccc(Br)cc1/C=N/NC(=S)NC12CC3CC(CC(C3)C1)C2`
stdout: T

stdin: Try the compound CCCCCCCCCCN1CC2CCCCC2C1 (stereo unspecified)
stdout: F

stdin: Try the compound `CSc1nc(N)n2nccc2n1`
stdout: F

stdin: Try the compound Cc1ccc(S(=O)(=O)N/N=C2\CC3CCC2C3)cc1 (stereo unspecified)
stdout: F

stdin: Try the compound `O=c1[nH]c(=S)[nH]c(O)c1/C=C1\C=Nc2ccccc21`
stdout: F

stdin: Try the compound `CCc1c(C)c2ccc(OCC(=O)N=Nc3c(O)[nH]c4ccccc34)c(C)c2oc1=O`
stdout: T

stdin: Try the compound `C/C=C/C/C=C/[C@H](C)C[C@H](O)[C@@H]1C[C@@H]2O[C@H]2/C=C/[C@H](O)[C@@H](O)/C=C/C[C@H](C)CC(=O)O1`
stdout: F
